These data points were gathered from PubChem BioAssay.

# target-under-test: Tumor necrosis factor receptor superfamily member 10B (Homo sapiens) (UniProt O14763)
# Sequence (O14763 whole entry, looked up): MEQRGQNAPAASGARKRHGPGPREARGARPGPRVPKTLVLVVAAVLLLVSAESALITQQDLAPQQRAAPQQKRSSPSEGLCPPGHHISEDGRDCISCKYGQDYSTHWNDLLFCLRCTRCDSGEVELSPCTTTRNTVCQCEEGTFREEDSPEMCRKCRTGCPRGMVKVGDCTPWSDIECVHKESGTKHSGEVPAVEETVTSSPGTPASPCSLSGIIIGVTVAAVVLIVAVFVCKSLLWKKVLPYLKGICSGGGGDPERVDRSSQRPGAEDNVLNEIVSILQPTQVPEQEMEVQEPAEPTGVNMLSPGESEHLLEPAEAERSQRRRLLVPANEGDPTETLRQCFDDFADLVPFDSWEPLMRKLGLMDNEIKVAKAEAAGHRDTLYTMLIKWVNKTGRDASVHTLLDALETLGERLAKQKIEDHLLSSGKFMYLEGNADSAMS
# assay-notes: caspase-8 TRAIL sensitization, hit retest, confirmation, cell-based, NB7+caspase-8, with/without TRAIL, luminescence panel (AID 651596)
# experimental-parameters: NB7 neuroblastoma + caspase-8, TRAIL sensitization, luminescence viability, with TRAIL, mean of runs, at 10 µM, stronger effect = higher value
observable: activity (%)

>>> assay_value("O=C(NC(=S)Nc1ccc(Br)cn1)c1cccs1")
71.7
>>> assay_value("CN1CCN(c2ccc(NC(=O)N3CCc4ccccc43)cc2)CC1")
70.6
>>> assay_value("Cn1cnc([N+](=O)[O-])c1Sc1nc(N)nc2c1ncn2C1CC(O)C(CO)O1 (configuration not stated)")
68.8
>>> assay_value("COc1ccccc1NC(CC(=O)c1ccccc1)C(=O)OCC(=O)c1ccc(F)cc1 (configuration not stated)")
69.5
>>> assay_value("c1ccc(Nc2nnc(-c3cccnc3)s2)cc1")
57.6
>>> assay_value("CC(C)(C)c1ccc(-c2noc(CCC(=O)N3CCOCC3)n2)cc1")
66.5
>>> assay_value("CCOC(=O)c1cccc(N2C(N)=NC(N)=NC2(C)C)c1")
52.6
>>> assay_value("COc1cc(SC#N)ccc1N=Cc1c(C)[nH]n(-c2ccc(C)c(C)c2)c1=O")
93
>>> assay_value("CC(=O)c1cccc(-c2ccnc3c2CC(C(=O)Nc2cccc(NS(C)(=O)=O)c2)O3)c1 (configuration not stated)")
74.9
>>> assay_value("O=C(COc1ccc(CO)cc1Cl)Nc1ccc(F)cc1")
44.5
>>> assay_value("CCN1CCN(c2c(Cl)cccc2NC(=O)c2ccc([N+](=O)[O-])o2)CC1")
52.3
>>> assay_value("CCOC(=O)CSc1nc(-c2ccncc2)ccc1C#N")
55.8
>>> assay_value("C/C(=N\\NC(=O)c1n[nH]c2c1CCC2)c1ccco1")
55.8
>>> assay_value("CCOC(=O)CSc1nc2cc(OC)ccc2cc1C#N")
74.7
>>> assay_value("CCN(CC)c1ccc(NC(=O)Nc2ccccc2)cc1")
52
>>> assay_value("O=C1C(=C(I)I)c2ccccc2-c2ccccc21")
38
>>> assay_value("NC(Cc1ccc(C(F)(F)F)cc1)c1csc(NC(=O)Nc2ccccc2Cc2ccccc2)n1 (configuration not stated)")
75
>>> assay_value("CCOc1ccc(-c2ccc(SC)nn2)cc1")
95.2
>>> assay_value("CC1(C)N=C(N)N=C(N)N1c1ccccc1")
83.4
>>> assay_value("O=C(CCN1C(=O)c2ccccc2C1=O)Nc1ccc(-c2nc3ccccc3s2)cc1")
44.4
>>> assay_value("CCS(=O)(=O)c1ncc(Cl)c(C(=O)Nc2ccc(C)cc2)n1")
78.6
>>> assay_value("CC(C)(C)c1ccc(-c2nnc(N)s2)cc1")
64.7
>>> assay_value("CCC(=O)c1ccc(/C=C/c2nc3ccccc3n2C)o1")
61.2
>>> assay_value("O=C(Nc1ccc2c(c1)nc1n2CCSC1)c1ccccc1")
69.8
>>> assay_value("COc1ccc(C(=O)c2no[n+]([O-])c2C(=O)c2ccc(OC)cc2)cc1")
98.3
>>> assay_value("COc1ccc2[nH]cc(C(=O)CCl)c2c1")
99.1
>>> assay_value("CC(=O)Oc1ccccc1C(=O)C=Cc1cccc([N+](=O)[O-])c1")
36.3

----------
# assay-notes: inhibition of Brca1/Bard1 split-luciferase complementation, confirmation, counter-screen for Mdm2/MdmX interaction inhibitor project, luminescence, single concentration (AID 504668)
# experimental-parameters: Brca1/Bard1 bimolecular luciferase complementation counterscreen, at 8 µM, stronger effect = higher value
Everything with inhibition lower than 30% is -1; everything else, including exactly 30%, is 1.

>>> classification("Cc1ccc2occ(/C=N/NC(=O)c3ccccc3C)c(=O)c2c1")
1
>>> classification("Cc1ccc(-n2nc(C)c(NC(=O)CCl)c2C)cc1C")
1
>>> classification("COc1cc2cncc(Cc3ccc(Cl)cc3)c2cc1OC")
-1
>>> classification("CC(C)(C)c1ccc(C(=O)O/N=C(\\N)c2ccccn2)cc1")
-1
>>> classification("Cn1c(C(=O)NCc2ccccc2)cc2oc3ccccc3c21")
1
>>> classification("C/C(=N\\NC(=O)c1c(C)nc2ccccn12)c1ccc(O)cc1O")
1
>>> classification("O=C(NNC(=O)c1ccccc1OCc1ccc(F)cc1)c1ccccc1O")
1
>>> classification("CC(C)c1cccc(O)c(=O)c1")
-1
>>> classification("COc1ccc2cc3c(N)nn(C(=O)c4cccc([N+](=O)[O-])c4)c3nc2c1")
1
>>> classification("CC(=O)N1CCN(c2ccc(NC(=O)c3ccc([N+](=O)[O-])o3)cc2Cl)CC1")
-1
>>> classification("Oc1c(Cl)cc(Cl)c(Cl)c1Cc1c(O)c(Cl)cc(Cl)c1Cl")
-1
>>> classification("Cn1nccc1C(=O)N/N=C/c1c(O)ccc2ccccc12")
1
>>> classification("O=C(N/N=C(\\Cc1ncc[nH]1)c1ccccc1)c1cccnc1")
1
>>> classification("C#CCOCCOCCOCCNc1nc(N2CCN(C(=O)CCCCCCCCCCNC(=O)[C@H](CO)n3cc(CCCSC)nn3)CC2)nc(N2CCN(C(=O)CCCCCCCCCCNC(=O)[C@H](CCCCN)n3cc(C[C@@H](C)CC)nn3)CC2)n1")
-1
>>> classification("CC(=O)c1c(C)[nH]c(C(=O)N2CCN(c3cc(Cl)ccc3C)CC2)c1C")
1
>>> classification("CCN1C(=O)C(=Cc2cccc(OC)c2Oc2ccc([N+](=O)[O-])cc2[N+](=O)[O-])SC1=S")
-1
>>> classification("C=C1CCC2[C@](C)(CO)[C@H](O)CC[C@@]2(C)[C@@H]1C/C=C1\\C(=O)OC[C@H]1O (stereo partly drawn)")
-1
>>> classification("Cc1ccc(C(=O)Nc2nc(-c3ccccn3)cs2)cc1S(=O)(=O)N1CCOCC1")
-1
>>> classification("COc1ccc(C(NC(C)=O)c2ccc3cccnc3c2O)c(OC)c1 (stereo not drawn)")
1
>>> classification("Nc1nonc1-c1nc2ccccc2n1CC(=O)Nc1ccccc1")
-1

----------
# target-under-test: PEG-3 (UniProt Q6IN02)
# Sequence (Q6IN02 whole entry, looked up): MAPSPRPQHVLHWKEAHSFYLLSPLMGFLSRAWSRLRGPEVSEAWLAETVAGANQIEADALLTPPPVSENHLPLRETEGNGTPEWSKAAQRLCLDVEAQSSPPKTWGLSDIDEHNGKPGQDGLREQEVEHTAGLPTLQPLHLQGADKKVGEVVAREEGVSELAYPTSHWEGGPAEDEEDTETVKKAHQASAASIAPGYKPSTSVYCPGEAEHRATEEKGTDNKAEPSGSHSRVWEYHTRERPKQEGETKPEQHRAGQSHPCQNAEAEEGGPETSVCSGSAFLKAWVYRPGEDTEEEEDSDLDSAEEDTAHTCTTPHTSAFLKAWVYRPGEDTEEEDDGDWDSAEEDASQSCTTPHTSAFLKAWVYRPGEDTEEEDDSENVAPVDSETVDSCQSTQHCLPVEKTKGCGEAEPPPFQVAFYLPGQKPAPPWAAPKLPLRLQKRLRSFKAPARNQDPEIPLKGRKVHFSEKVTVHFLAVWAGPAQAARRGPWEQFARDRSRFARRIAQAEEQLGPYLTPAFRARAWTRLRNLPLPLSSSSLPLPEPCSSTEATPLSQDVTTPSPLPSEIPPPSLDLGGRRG
# assay-notes: Peg3 promoter luciferase inhibitors, potency, dose response, cell-based, HeLa, CREF/GAPDH counter-screen panel (AID 624167)
# experimental-parameters: CREF/GAPDH counter-screens; HeLa PEG-Prom luciferase reporter, overnight, run 1, dose range 1, at 100 µM (top of the series) unless noted
observable: inhibition (%)

>>> assay_value("O=C(C[C@H]1C[C@H](C(=O)N2CCCCC2)[C@@]2(CCc3ccccc3)c3[nH]c4ccc(Cl)cc4c3CCN2C1=O)NCCc1ccccn1")
94
>>> assay_value("COc1ccc2sc(-c3ccc(S(C)(=O)=O)cc3)c(C#Cc3cncn3C)c2c1")
-25.4
>>> assay_value("Cc1ccc(-n2[nH]c(=O)c(-c3ccccn3)c2C)cc1")
94.8
>>> assay_value("COc1cc(/C=C/c2ccc3cccc(O)c3n2)c(Br)cc1O")
99.5
>>> assay_value("CC(C)(C)c1ccc(Oc2ccc(N)cc2)cc1")
99.3
>>> assay_value("O=C(c1ccc(Cl)cc1)N1CCCCC(Sc2nnc(-c3ccc4c(c3)OCO4)o2)C1=O (stereo not given)")
93.2
>>> assay_value("NC1=NC[C@H](Cc2ccccc2)N1CCc1cc(C(F)(F)F)cc(C(F)(F)F)c1")
101
>>> assay_value("Oc1[nH]c2ccc(Br)cc2c1N=NC(=S)N1CCOCC1")
102
>>> assay_value("CCCSc1ccc2nc(-c3ccccc3)cn2c1")
98.4
>>> assay_value("CCCCCCCNC(=O)C1(CC2CC(c3ccccc3)=NO2)CCNCC1 (stereo not given)")
97.9
>>> assay_value("CN(C)CCNc1ncnc2c1sc1nc(N3CCOCC3)c3c(c12)CC(C)(C)SC3")
98
>>> assay_value("CNCC[C@H](Oc1cccc2ccccc12)c1cccs1")
102
>>> assay_value("O=C(N/N=C\\c1c(O)ccc2ccccc12)c1cncc(Br)c1")
82.3
>>> assay_value("CCOc1ccc(Nc2c3ccccc3nc3ccccc23)cc1")
97.9
>>> assay_value("CC(=O)N1CCCC(c2cc(C(=O)Nc3ccccc3)no2)C1 (stereo not given)")
100
>>> assay_value("O=S(=O)(c1cccc(F)c1)N1CCN(c2nc(-c3cccnc3)nc3ccccc23)CC1")
26.5
>>> assay_value("O=C1c2ccccc2S(=O)(=O)N1Cc1nc2ccccc2s1")
101
>>> assay_value("CCCCC(=O)NC(c1ccccc1)c1ccc2cccnc2c1O (stereo not given)")
90.4
>>> assay_value("Cc1ccc(NS(=O)(=O)c2cc3c4c(cccc4c2)C(=O)NC3=O)cc1C")
71.4
>>> assay_value("CC(C)CCCCCCCCCCCCC(=O)NCC(=O)NC1C(O)C(O)C(Nc2ncnc3nc[nH]c23)OC1C(O)CO (stereo not given)")
102
>>> assay_value("CCC(=O)NC(c1cccs1)c1cc(Cl)c2cccnc2c1O (stereo not given)")
100
>>> assay_value("O=C(NCCc1ccccc1)c1ccc2c(c1)OCCO2")
94.6
>>> assay_value("CC(=O)N1CCN(c2cc(-c3ccccc3)nc3cc(-c4cccc(Cl)c4)nn23)CC1")
101
>>> assay_value("CCn1c2ccccc2c2cc(NC(=O)C(C)OC(=O)c3ccc(NC(=O)CC#N)cc3)ccc21 (stereo not given)")
97.5
>>> assay_value("CC1CCN(c2ccc(-c3cccc(NC(=O)C(F)(F)F)c3)nn2)CC1")
93.8
>>> assay_value("CCC(=O)NC(c1cccs1)c1cc([N+](=O)[O-])c2cccnc2c1O (stereo not given)")
100
>>> assay_value("CCN(CC)c1ccc2nc3ccc(N)cc3[n+](-c3ccccc3)c2c1")
101
>>> assay_value("CC1CCCCN1C(=O)c1cccc(NC2=C(Cl)C(=O)N(Cc3ccccc3)C2=O)c1 (stereo not given)")
101
>>> assay_value("Cc1ccc(C(=O)N/C(=C\\c2ccc(-c3cccc([N+](=O)[O-])c3)o2)C(=O)NCCCN(C)C)cc1")
102
>>> assay_value("Cc1ccc(OCC(=O)c2cc(C)n(Cc3ccco3)c2C)c([N+](=O)[O-])n1")
58
